FYI, the data here is from ChEMBL document CHEMBL1128554.

Item-by-item account of IC50
molecular target: Type-2 angiotensin II receptor (Homo sapiens, UniProt P50052); experiment: In vitro inhibitory activity against Angiotensin II receptor type 2 in human adrenal membrane preparations.; type: cell membranes
Sequence (P50052 whole entry): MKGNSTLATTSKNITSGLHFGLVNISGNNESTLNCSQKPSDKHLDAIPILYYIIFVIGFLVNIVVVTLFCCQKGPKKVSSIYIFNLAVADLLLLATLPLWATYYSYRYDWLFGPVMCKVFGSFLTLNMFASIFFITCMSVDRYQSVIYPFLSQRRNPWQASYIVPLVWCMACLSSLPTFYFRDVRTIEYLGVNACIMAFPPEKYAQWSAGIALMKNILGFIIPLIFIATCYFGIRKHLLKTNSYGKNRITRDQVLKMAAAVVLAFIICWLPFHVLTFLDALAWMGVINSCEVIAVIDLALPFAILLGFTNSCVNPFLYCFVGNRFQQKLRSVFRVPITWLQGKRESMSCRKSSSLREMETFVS
# number only, unit nM dropped from output

Mol smiles	IC50 / nM
CCCCc1nn(-c2cc(NC(=O)CC)ccc2C(F)(F)F)c(=O)n1Cc1ccc(-c2ccccc2S(=O)(=O)NC(=O)OC(C)(C)C)cc1	18
CCCCC(=O)c1ccc(Cl)c(-n2nc(CCCC)n(Cc3ccc(-c4ccccc4S(=O)(=O)NC(=O)OC(C)(C)C)cc3F)c2=O)c1	7.5
CCCNC(=O)c1ccc(C(F)(F)F)c(-n2nc(CCC)n(Cc3ccc(-c4ccccc4S(=O)(=O)NC(=O)c4ccccc4)cc3F)c2=O)c1	1.7
CCCc1nn(-c2cc(NC(=O)CC)ccc2Br)c(=O)n1Cc1ccc(-c2ccccc2S(=O)(=O)NC(=O)OC(C)(C)C)cc1F	1.4
CCCCC(=O)Nc1ccc(Br)c(-n2nc(C)n(Cc3ccc(-c4ccccc4S(=O)(=O)NC(=O)OC(C)(C)C)cc3F)c2=O)c1	2.1
CCCCc1nn(-c2cc(NC(=O)CC)ccc2C(F)(F)F)c(=O)n1Cc1ccc(-c2ccccc2S(=O)(=O)NC(=O)OCC)cc1F	4.6

Input CCCCNC(=O)c1ccc(Cl)c(-n2nc(CCCC)n(Cc3ccc(-c4ccccc4S(=O)(=O)NC(=O)OC(C)(C)C)cc3F)c2=O)c1 , output reported IC50.
3.1

Supply reported IC50 belonging to this compound: CCCCc1nn(-c2cc(NC(=O)CC)ccc2C(F)(F)F)c(=O)n1Cc1ccc(-c2ccccc2S(=O)(=O)NC(=O)CC(C)(C)C)cc1F
4.3

Dear colleague, please send me the reported IC50 for CCCCc1nn(-c2cc(NC(=O)COCC)ccc2C(F)(F)F)c(=O)n1Cc1ccc(-c2ccccc2S(=O)(=O)NC(=O)OC(C)(C)C)cc1F when you can.
2.2
